In this section, each of the molecules is paired with its reported melting point.

MOLECULE: Cn1ccc2cc(N3Cc4ccc(OC(F)F)cc4C3=O)ccc21
VAL: 180 to 182 °C
//
MOLECULE: CC1(C)C=CN(C(=O)Nc2ccccc2)C=C1
VAL: 128 to 130 °C

Note down melting point recorded for Cc1ccc(C(O)Cc2nc(C)c(C)nc2C)cc1 (stereo unspecified)
99 to 101 °C

Annotate the molecule Cn1c(=O)n(CCO)n(CCO)c1=O with its measured melting point.
126 to 127 °C

Complete the entry with melting point for OCC1=Cc2cccc(OCc3ccccc3)c2CC1
59 to 61 °C

Return the recorded melting point value; entry: COc1ccc(C=CC(=O)c2ccc(O)c(CC(=O)O)c2)cc1
247 °C
